Hey, just so you know, these numbers are from patent US20220356235A1.

Target: T1, recombinant human FH fragment CCP 19-20 (human, UniProt P08603 1107-1231)
T1 construct: domain: CCP 19-20
T1 sequence (looked up): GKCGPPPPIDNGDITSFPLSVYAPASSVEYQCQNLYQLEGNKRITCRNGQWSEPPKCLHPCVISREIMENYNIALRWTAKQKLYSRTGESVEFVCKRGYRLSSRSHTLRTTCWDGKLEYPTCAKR
Experiment: competition ELISA: mAb captured on RM-19 coated plate, FH-bt mixed with unlabelled CCP 19-20

# BINDER, binding result
rows = [
    ("anti-FHR-1.8E4 (antibody, V domains shown, Mouse monoclonal from a hybridoma, raised against recombinant human FHR-1; also called aFHR-1 8E4) VH: QVQLKQSGPGLVQPSQSLSITCTVSDFSLTNSGVHWVRQSPGKGLEWLGVIWSGGTTEYNAAFMSRLTITKDNSKSQVFFKMNSLLVDDTGIYYCARNFGNYAVDYWGQGTSVTVSS VL: QIVLSQSPAILSASPGEKVTMTCRASSSVRYMHWYQQKAGSSPTAWIFATSNLASGVPPRFSGSGSGTSYSLTISRVEAEDAATYYCQQWGTKPPTFGAGTKLELK", "no binding"),
    ("anti-FH.07 (antibody, V domains shown) VH: QVQLQQSGPGLVQPSQSLSITCTVSDFSLARYGVHWIRQSPGKGLEWLGVIWSGGTADYNAAFISRLNINKDNSKSQVFFKMNSLQANDTAIYYCARNFGNYAVDYWGQGTS VL: QIVLSQSPTFLSASPGEKVTVTCRASSSVKYMHWYQQKPGASPKPWIFATSNLASGVPARFSGSGSGTSYSLTISRVEAEDAATYYCQQWSIIPPTFGNGTKLELK", "no binding"),
    ("FHR-1.14C4 (antibody, V domains shown, Mouse monoclonal from a hybridoma, raised against recombinant human FHR-1) VH: EVQLQQSGPELEKPGASVKISCKASGYSFTGYNMHWVKQSNGTSLEWIGKIDPYYGDTSYNQRFKGKATLTVDKSSSTAYMQLKSLTSEDSAVYYCARAFYRDYALDYWGRGTSVTVSS VL: DIVMTQSPSSLTVTAGEKVTMSCKSSQSLFNSGNQKNYLTWYQQKPGQPPKLLIYWASTRESGVPDRFTGSGSGTDFTLTISSVQAEDLAVYYCQNDYSYPLTFGAGTKLELK", "no binding"),
]
